Tgt: Luciferin 4-monooxygenase (Photinus pyralis)
Assay method text: qHTS profiling assay for firefly luciferase inhibitor/activator using purifed enzyme and Km concentrations of substrates (counterscreen for miR-21 project); also: nearly all actives have a fitted effect of over 55% in size
Condition parameters: purified FLuc, luminescence inhibition; series mostly up to 57.5 µM
From the text: MLPCN Grant: 1 R21 NS059478-01 (miR-21 grant) Assay Provider: NCGC NCGC Assay Overview: Firefly (Photinus pyralis) luciferase is one of the most commonly used transcriptional reporters for a number of reasons. […] Although light produced in a bioluminescence reaction is of lower intensity than that produced during fluorescence emission, this is offset by little to no background light inherent to luminescent assays. […]
In all, about 360,000 compounds went through this assay and about 25,000 (6.9%) were called active. Inconclusive results (about 9%) are left out. Calls follow the shape of the dose curve; as a rule, active = well fitted inhibition curve with a large enough effect; inconclusive = small, poorly fitted or top-dose-only effect; inactive = flat fitted curve, though single readings scatter. The sample holds actives, similar compounds and a random draw of the others, so the mix is not that of the screen.
A correct response names exactly one class from yes (1) = active, no (0) = inactive

Molecule	Label value
CCOC(=O)c1c(NC(=O)/C=C/c2ccc(OC)cc2)sc2c1CCC(C)C2 (stereo not given)	no (0)
CCCSc1nc2[nH]ncc2c(=O)[nH]1	no (0)
CN(CCO)c1ccc(/C=N/Nc2nncc3ccccc23)cc1	yes (1)
CC(C)c1ccc(NC(=O)c2cc(S(=O)(=O)N3CCc4ccccc4C3)ccc2F)cc1	no (0)
COc1ccccc1CNC(=O)C(=O)NCC(c1ccco1)S(=O)(=O)c1ccc(F)cc1 (stereo not given)	no (0)

Challenge: Each molecule tested received a call. Report the one for `Cc1ccn2c(=O)c(NC(=O)c3cccc4ccccc34)c(C)nc2c1` .
Response given: no (0)

Challenge: Please do the same for `CCOc1ccc(/C=N\NC(=O)c2c(C)nc3cc(C)ccn23)cc1` as well.
Response given: no (0)

Challenge: Please do the same for `Cc1cccc(NC(=O)CSc2nc3[nH]ncc3c(=O)[nH]2)c1` as well.
Response given: no (0)

Challenge: Please do the same for `Cc1ccc(C)c(Nc2nnc(-c3ccc(C)c(S(=O)(=O)N4CCCCC4)c3)c3ccccc23)c1` as well.
Response given: no (0)

Challenge: Please do the same for `Cc1ccc(NC(=O)C(=O)NCc2ccc(/C=N/NC(=O)c3c(C)nc4cc(C)ccn34)o2)cc1` as well.
Response given: yes (1)

---

Tgt: Luciferin 4-monooxygenase (Photinus pyralis)
Assay method text: qHTS profiling assay for firefly luciferase inhibitor/activator using purifed enzyme and Km concentrations of substrates (counterscreen for miR-21 project); also: nearly all actives have a fitted effect of over 55% in size
Condition parameters: purified FLuc, luminescence inhibition; series mostly up to 57.5 µM
Among all 360,000 compounds or so, about 25,000 (6.9%) were called active. Roughly 9% stayed inconclusive and do not appear here. Calls come from the whole dose curve; as a rule, active = well fitted inhibition curve with a large enough effect; inconclusive = small, poorly fitted or top-dose-only effect; inactive = flat fitted curve, though single readings scatter. Only a selection was taken, and actives are over-represented in it overall.
A correct response names exactly one class from t for active, f for inactive

Compound	Label value
S=c1[nH]nc(-c2cc(-c3ccccc3)n[nH]2)n1/N=C/c1c2ccccc2cc2ccccc12	f
COc1ccc(CNC(=O)Cc2ccc(-c3ccccc3)cc2)cc1OC	f
Cc1ccccc1CN1CCC(CNC(=O)c2cc3ccc4cccnc4c3[nH]2)CC1	f
CNc1nc(-c2ccccc2)cc(-c2ccccc2)n1	f
COc1cc(OC)cc(-c2nc3nc(C)c(CCC(=O)Nc4ccc(C)cc4)c(C)n3n2)c1	f
Cc1nc2ccccn2c(=O)c1NC(=O)c1cccs1	f
O=C(COC(=O)CCC(=O)c1cccs1)NCc1ccco1	f
CC1C/C(=N/NC(=O)c2cccs2)CC(C)(C)C1 (configuration not stated)	f
Nc1ccc2nn(-c3ccc(Cl)cc3)nc2c1	t
CC(C)C(=O)OCC(=O)Nc1ccc2c(c1)CCC2	t

Challenge: Each compound tested received a call. Report the one for `CCS(=O)(=O)C1=NSC2=NC(=O)/C(=C\c3cc(C)n(-c4cccc(OC)c4)c3C)C(=N)N21` .
Response given: t

Challenge: Please do the same for `COc1ccc(NC(=O)CCc2nnc3n(CC(C)C)c(=O)c4ccccc4n23)cc1OC` as well.
Response given: f

Challenge: Please do the same for `CC(=O)c1ccc(NC(=O)CSc2c(C(C)C)cnc3c2c(=O)n(C)c(=O)n3C)cc1` as well.
Response given: f

Challenge: Please do the same for `COc1ccccc1OCCOc1ccc(/C=C2\C(=N)N3N=C(C)SC3=NC2=O)cc1` as well.
Response given: f

Challenge: Please do the same for `Cc1ccc(-n2c(C)cc(/C=N\NC(=O)CC(=O)NC(C)C)c2C)cc1` as well.
Response given: t

Challenge: Please do the same for `COc1ccc(NC(=O)Cn2c(=O)cc(C)c3c(C)nn(-c4cccc(Cl)c4C)c32)cc1OC` as well.
Response given: f

Challenge: Please do the same for `COCc1c(N)c(C)nc(Cl)c1C#N` as well.
Response given: t

Challenge: Please do the same for CC(C)Nc1nnc(SC(C)C(=O)N(C)C2CCCCC2)s1 (configuration not stated) as well.
Response given: f

Challenge: Please do the same for `COc1ccc(CC(=O)Nc2ccc3c(c2)CCC3)cc1S(=O)(=O)N1CCOCC1` as well.
Response given: f

Challenge: Please do the same for `Cc1ccc(-c2cc(C(=O)N/N=C/C=C/c3ccco3)c3ccccc3n2)cc1C` as well.
Response given: t

Data credit: PubChem BioAssay AID588342
